Test system: UACC-257 melanoma
method: NCI tumour cell line growth inhibition, 48 h
Where a SMILES comes first, the peptide text is derived from it. The star is where a group is joined. Boc = CC(C)(C)OC(=O)*
measurement-name: TGI

Cc1cc(S(=O)(=O)n2ccnc2Oc2cccc(Cl)c2)c(SSc2cc(Cl)c(C)cc2S(=O)(=O)n2ccnc2Oc2cccc(Cl)c2)cc1Cl; > 100 µM
COc1cc(C(=O)NC(CCN)(c2ccccc2)c2ccccc2)cc(OC)c1OC; 22.3 µM
C[N+](C)(CCNC(=O)c1cccc2cc3ccccc3nc12)Cc1ccc([N+](=O)[O-])cc1; > 100 µM
Cc1cc(O)c(C(=O)O)c2c1C(=O)c1c(O)c(OCC(O)C(O)C(O)C(O)CO)c(O)c(O)c1C2=O (stereo not drawn) (tested in a mixture with another compound); > 100 µM
COc1ccc(NC(=O)/C(Cc2nc3ccccc3[nH]c2=O)=N\O)c(OC)c1; > 100 µM

Query: Recorded TGI of CC(C)(C)OC(=O)NC(Cc1ccc(O)cc1)C(=O)NC(CCCCN)C(=O)O (stereo not drawn) (Boc-Tyr-Lys-OH; configuration not given here) , please.
Reply: 83.5 µM

Query: Cool, now O=C1Nc2cc(Cl)ccc2/C1=C\c1c(-c2ccc(F)cc2)nc2ccccn12
Reply: 48.5 µM

Query: Lookup O=c1c2cc([N+](=O)[O-])ccc2[nH]n1Cc1ccccn1
Reply: > 100 µM

---

compounds and their reported TGI
Tested on: HOP-62 NSCLC
method: NCI tumour cell line growth inhibition, 48 h

Recorded TGI, per entry:
CCOC(=O)C(=O)Nc1ccc(C)c(C)c1; > 100 µM
Nc1ccc(C(c2ccccc2)(c2ccccc2)c2ccccc2)cc1; 75.8 µM
CN1C(=O)CC2CCCN2C1=O (stereo not given); > 100 µM
O=C(/C=C/c1ccc(Cl)cc1)/C=C/c1cc2ccccc2[nH]c1=O; 26 µM
CCOP(=O)(O)C(Nc1ccc(N=Nc2ccccc2)cc1)c1ccc(C(Nc2ccc(N=Nc3ccccc3)cc2)P(=O)(O)OCC)cc1 (stereo not given); 36.3 µM

Query: Which measured TGI value corresponds to COC(=O)[C@H](NC(=O)OC(C)(C)C)[C@H]1COC(C)(C)O1 ?
Reply: > 100 µM

Query: Okay, and O=[N+]([O-])c1ccc2c(c1)Sc1ccccc1N2CCCCCl ?
Reply: > 100 µM

Query: And the next one, CC1=NN(c2nc(N)nc(C(C#N)C(=O)c3cc4c(cc3Cl)Sc3nccn3S4(=O)=O)n2)C(C)(C)C1 (stereo not given) ?
Reply: > 100 µM

Query: Okay, and O=c1cc(-c2ccccc2)oc2cc(Oc3nnnn3-c3ccccc3)ccc12 ?
Reply: > 100 µM

Query: Quick one: O=C1c2ccccc2-c2nnc(-c3ccc(Br)cc3)cc21
Reply: > 100 µM

---

Listed here are compounds together with their documented GI50.
Tested on: SK-MEL-2 melanoma
method: NCI tumour cell line growth inhibition, 48 h
Residues, ends and D or L forms follow the SMILES beside them. *: point of attachment. Boc = CC(C)(C)OC(=O)*

Past entries and their recorded results:
CCOc1nc(-c2ccccc2)cc2c(O)c(C(=O)N/N=C/c3ccc(O)cc3O)[nH]c(=O)c12; 5.1 µM
FC(F)(F)c1nnn[n-]1.[Au+].c1ccc([PH+](c2ccccc2)c2ccccc2)cc1; 3.09 µM
C(#Cc1cnccn1)/C=C\C#Cc1cnccn1; 41.8 µM
O=C1Nc2cc(Cl)ccc2/C1=C\c1c(-c2ccc(F)cc2)nc2ccccn12; 0.458 µM
COC(=O)CNC(=O)C(Cc1ccccc1)NC(=O)C(Cc1ccccc1)NC(=O)OC(C)(C)C (stereo not drawn) (Boc-Phe-Phe-Gly-OMe; configuration not given here); 41.2 µg/mL

Query: Short answer please: GI50, SK-MEL-2 melanoma, entry O=C1C=CC(=O)N1C1CCCCCCCCCCC1
Reply: 16.4 µM

Query: Cool, now COc1cccc2c1C(=O)c1c(O)c3c(c(O)c1C2=O)C[C@@](O)(C(C)O)C[C@@H]3OC1CC(N)C(O)C(C)O1 (stereo partly drawn)
Reply: 1.59 µM

Query: Here is the next compound: COc1ccc2[nH]c(-c3ccccc3)c(/C=C(\C#N)S(=O)(=O)c3ccccc3)c2c1
Reply: 3.7 µM

---

Test system: OVCAR-3 ovarian
method: NCI tumour cell line growth inhibition, 48 h
Here the recorded TGI is given for each entry.

CCn1cc(C(=O)O)c(=O)c2cc(F)c(N3CCN(S(=O)(=O)c4ccc(Cl)cc4)CC3)cc21; > 100 µM
CC1=NCCc2cc3[nH]c4ccccc4c3cc21; 114 µM
CSc1ncc2c(n1)-c1ccccc1OC2N1CCCCC1 (configuration not stated); > 100 µM
O=[N+]([O-])c1ccc2c(c1)Sc1ccccc1N2CCCCCl; > 100 µM

Query: What value of measured TGI is listed for CCCCc1ccc(Nc2cc(=O)n(C)c(=O)[nH]2)cc1 ?
Reply: > 100 µM

Query: Let us now turn to CC(C)(C)C(=O)N(C(=S)OCc1ccccn1)c1ccccc1
Reply: > 100 µM

---

System: SNB-19 CNS
method: NCI tumour cell line growth inhibition, 48 h
*1 amine or outer side, *2 acyl side, *3 side chain or, on linkers, in order; H or OH if unused. Where a SMILES comes first, the peptide text is derived from it. Bridges are numbered along the chain shown (N, C = ends). [ ]: non-standard residue; d: D form. Adda = CO[C@@H](Cc1ccccc1)[C@@H](C)/C=C(C)/C=C/[C@H](N[*:1])[C@H](C)C(=O)[*:2]; dAsp(3S-Me) = C[C@H](C(=O)[*:3])[C@@H](N[*:1])C(=O)[*:2]; d(γGlu) = O=C(O)[C@@H](CCC(=O)[*:2])N[*:1]; NMeDha = C=C(NC)C(=O)O
Documented GI50 across a set of compounds

O=C(N/N=C/c1ccccc1O)c1ccccc1O; 2.69 µM
COc1ccc2[nH]c(-c3ccccc3)c(/C=C(\C#N)S(=O)(=O)c3ccccc3)c2c1; 13.5 µM
FC(F)(F)c1nnn[n-]1.[Au+].c1ccc([PH+](c2ccccc2)c2ccccc2)cc1; 4.07 µM

Query: Could you tell me which GI50 is on file for C=C1C(=O)N[C@H](C)C(=O)N[C@@H](CC(C)C)C(=O)N[C@@H](C(=O)O)[C@H](C)C(=O)N[C@@H](CCCN=C(N)N)C(=O)N[C@@H](/C=C/C(C)=C/[C@H](C)[C@H](Cc2ccccc2)OC)[C@H](C)C(=O)N[C@@H](C(=O)O)CCC(=O)N1C (R[Adda][d(γGlu)][NMeDha][dA]L[dAsp(3S-Me)]-OH; lactam N-7) ?
Reply: > 5 µM

---

Catalogue of TGI readings, one per entry.
Tested on: TK-10 renal
method: NCI tumour cell line growth inhibition, 48 h

[C-]#[N+][C@@H]1C2[C@H](CC[C@@]1(C)O)C(=C)CC[C@@H]2[C@@]1(C)CC[C@H](Cl)C(C)(C)O1 (stereo not given in full); 84.2 µM

Query: Item under review: CC12OC1(C)C1C(=O)OCC1C2=O (stereo not given) . Reported TGI?
Reply: > 100 µM

Query: CN(C)CCC=C1c2ccccc2C=Cc2ccccc21 , same question.
Reply: 29.8 µM

Query: Here is the next molecule: COc1ccc(S(=O)(=O)N/N=C\c2cc([N+](=O)[O-])cc(I)c2O)c(OC)c1OC
Reply: > 100 µM

Query: Next up: Cc1cc(O)c(C=O)c2c1C(=O)Oc1c(CO)c(O)c3c(c1O2)C(O)OC3=O (stereo not given)
Reply: > 100 µM

Query: Please answer likewise for COc1cc2c(cc1O)NC(=S)[C@@H]1CCCN1C2=O
Reply: > 100 µM

Query: // next record O=C(Oc1ccc(S(=O)(=O)F)cc1F)c1ccccc1Cl
Reply: > 100 µM

Query: Try this molecule next: Cc1cc(N(CCC#N)CCC#N)ccc1/C=C\C(=O)Nc1ccccc1
Reply: > 100 µM

Query: Same thing, different molecule: O=C(c1cc(Cl)ccc1Cl)N1CCN(c2cccc(Cl)c2)CC1
Reply: > 100 µM

Query: Again, but for CN1CCN(CCCOc2ccc3nc(Nc4cc(Cl)cc(Cl)c4)ccc3c2)CC1
Reply: 3.92 µM

---

System: UO-31 renal
method: NCI tumour cell line growth inhibition, 48 h
measurement-name: TGI (µM)
# number only, unit µM dropped from output

Query: Look up TGI for this compound: CC1=NN(c2nc(N)nc(C(C#N)C(=O)c3cc4c(cc3Cl)Sc3nccn3S4(=O)=O)n2)C(C)(C)C1 (stereo not given)
Reply: 67.2

Query: Now consider C/C1=C\[C@H](C)C[C@H](C)OC(=O)C[C@H](c2ccc(O)cc2)NC(=O)[C@H](Cc2ccc(O)c(I)c2)N(C)C(=O)[C@H](C)NC(=O)[C@@H](C)C1 and answer again.
Reply: 0.185
